test system: 782815-120-R-J1-PDC complex spheroid viability; assay: Anticancer human tumor 782815-120-R-J1-PDC patient-derived colon adenocarcinoma cell line growth inhibition [RAS]; details: second compound 0.03 µM; first compound 0.0316 µM; active compounds read low;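 further: spheroids exposed to compounds for 7 days before reading; 100% = DMSO vehicle control viability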
value kind: viability, T/C (%)
Give a bare numeral; the unit % is implied.

compound="CC(C)n1nc(-c2ccc3oc(N)nc3c2)c2c(N)ncnc21 + CCn1c(-c2cc(N3CCN(C)CC3)cnc2C(C)OC)c2c3cc(ccc31)-c1csc(n1)CC(NC(=O)C1CC1C)C(=O)N1CCCC(N1)C(=O)OCC(C)(C)C2" measured=14.6

Asked: Requested field: viability, T/C. Item: CCC(CC)c1cc(NC2CCC(N)C2)n2nccc2n1 (centres undefined) + CCn1c(-c2cccnc2C(C)OC)c2c3cc(ccc31)N1CCOC(CC(NC(=O)C(C(C)C)N(C)C(=O)C3(F)CCN(C(=O)C#CC(C)(C)N(C)C)CC3)C(=O)N3CCCC(N3)C(=O)OCC(C)(C)C2)C1
Given back: 94.2
